# AR Agonist CV-1 Cells Efficacy (%) values compiled below
# study system: human AR (Homo sapiens, UniProt P10275)
# Sequence (P10275 whole entry): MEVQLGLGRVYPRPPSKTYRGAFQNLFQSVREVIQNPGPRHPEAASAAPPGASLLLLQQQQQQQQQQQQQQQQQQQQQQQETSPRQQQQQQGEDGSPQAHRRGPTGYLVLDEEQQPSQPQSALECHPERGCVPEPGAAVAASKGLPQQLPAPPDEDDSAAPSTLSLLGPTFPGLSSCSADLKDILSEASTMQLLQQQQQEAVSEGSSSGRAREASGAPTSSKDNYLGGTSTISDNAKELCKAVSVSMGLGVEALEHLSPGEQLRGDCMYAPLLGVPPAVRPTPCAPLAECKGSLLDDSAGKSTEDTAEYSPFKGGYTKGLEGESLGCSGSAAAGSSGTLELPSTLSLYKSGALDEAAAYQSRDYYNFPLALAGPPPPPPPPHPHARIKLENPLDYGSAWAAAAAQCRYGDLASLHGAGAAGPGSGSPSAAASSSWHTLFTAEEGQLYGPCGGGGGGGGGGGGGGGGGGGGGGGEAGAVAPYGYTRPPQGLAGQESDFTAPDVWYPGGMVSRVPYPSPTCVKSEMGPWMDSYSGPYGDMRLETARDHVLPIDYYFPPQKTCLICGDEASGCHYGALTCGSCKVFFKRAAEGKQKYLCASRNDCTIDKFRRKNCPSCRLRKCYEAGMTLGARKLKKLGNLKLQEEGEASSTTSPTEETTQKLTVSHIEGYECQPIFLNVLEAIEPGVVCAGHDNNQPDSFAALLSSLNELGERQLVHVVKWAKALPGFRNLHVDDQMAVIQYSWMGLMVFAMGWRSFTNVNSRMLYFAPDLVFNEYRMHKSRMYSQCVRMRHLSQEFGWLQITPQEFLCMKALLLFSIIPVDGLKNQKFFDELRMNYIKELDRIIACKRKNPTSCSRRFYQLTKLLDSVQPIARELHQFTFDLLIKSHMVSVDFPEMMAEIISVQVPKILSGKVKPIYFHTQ
# test details: Co-transfection assay, AR agonist, CV-1 cells
# Type: cell-based
# measurement parameters: CV-1 cells; percent maximal response relative to reference agonist DHT

[
  {
    "compound": "CCC1CCNc2cc3nc(Cl)c(F)c(C(F)(F)F)c3cc21 (racemic)",
    "study system": "human AR (Homo sapiens, UniProt P10275)",
    "AR Agonist CV-1 Cells Efficacy (%)": 35
  },
  {
    "compound": "CCC1CCNc2cc3nc(Cl)cc(C(F)(F)F)c3cc21 (racemic)",
    "study system": "human AR (Homo sapiens, UniProt P10275)",
    "AR Agonist CV-1 Cells Efficacy (%)": 36
  },
  {
    "compound": "CCC1CCNc2cc3nc(Br)cc(C(F)(F)F)c3cc21 (racemic)",
    "study system": "human AR (Homo sapiens, UniProt P10275)",
    "AR Agonist CV-1 Cells Efficacy (%)": 53
  },
  {
    "compound": "CCC1CCN(C)c2cc3nc(C#N)cc(C(F)(F)F)c3cc21 (racemic)",
    "study system": "human AR (Homo sapiens, UniProt P10275)",
    "AR Agonist CV-1 Cells Efficacy (%)": 2
  },
  {
    "compound": "CCC1CCNc2cc3nc(SC)cc(C(F)(F)F)c3cc21 (racemic)",
    "study system": "human AR (Homo sapiens, UniProt P10275)",
    "AR Agonist CV-1 Cells Efficacy (%)": 30
  },
  {
    "compound": "CCC1CCNc2cc3nccc(C(F)(F)F)c3cc21 (racemic)",
    "study system": "human AR (Homo sapiens, UniProt P10275)",
    "AR Agonist CV-1 Cells Efficacy (%)": 9
  },
  {
    "compound": "CC1(C)CCc2cc3c(cc2N1)N(C(=O)c1ccccc1)C(C#N)C=C3C(F)(F)F (racemic)",
    "study system": "human AR (Homo sapiens, UniProt P10275)",
    "AR Agonist CV-1 Cells Efficacy (%)": 0
  },
  {
    "compound": "CCC1CCNc2cc3nc(F)cc(C(F)(F)F)c3cc21 (racemic)",
    "study system": "human AR (Homo sapiens, UniProt P10275)",
    "AR Agonist CV-1 Cells Efficacy (%)": 60
  },
  {
    "compound": "Cc1c2c(cc3c(C(F)(F)F)c(F)c(F)nc13)C(C)CC(C)(C)N2 (stereo not shown)",
    "study system": "human AR (Homo sapiens, UniProt P10275)",
    "AR Agonist CV-1 Cells Efficacy (%)": 0
  },
  {
    "compound": "CC1(C)CCc2cc3c(C(F)(F)F)c(F)c(Cl)nc3cc2N1",
    "study system": "human AR (Homo sapiens, UniProt P10275)",
    "AR Agonist CV-1 Cells Efficacy (%)": 29
  },
  {
    "compound": "CC1(C)CCc2cc3c(C(F)(F)F)c(F)cnc3cc2N1",
    "study system": "human AR (Homo sapiens, UniProt P10275)",
    "AR Agonist CV-1 Cells Efficacy (%)": 3
  },
  {
    "compound": "Cc1c2c(cc3c(C(F)(F)F)c(F)c(Cl)nc13)C(C)CC(C)(C)N2 (stereo not shown)",
    "study system": "human AR (Homo sapiens, UniProt P10275)",
    "AR Agonist CV-1 Cells Efficacy (%)": 4
  },
  {
    "compound": "CCC1CCNc2cc3nc([S+](C)[O-])cc(C(F)(F)F)c3cc21 (racemic)",
    "study system": "human AR (Homo sapiens, UniProt P10275)",
    "AR Agonist CV-1 Cells Efficacy (%)": 37
  },
  {
    "compound": "C[S+]([O-])c1nc2cc3c(cc2c(C(F)(F)F)c1F)CCC(C)(C)N3 (racemic)",
    "study system": "human AR (Homo sapiens, UniProt P10275)",
    "AR Agonist CV-1 Cells Efficacy (%)": 10
  },
  {
    "compound": "CC1(C)CCc2cc3c(C(F)(F)F)c(F)c(F)nc3cc2N1",
    "study system": "human AR (Homo sapiens, UniProt P10275)",
    "AR Agonist CV-1 Cells Efficacy (%)": 12
  },
  {
    "compound": "CC1(C)CCc2cc3c(C(F)(F)F)c(F)c(Br)nc3cc2N1",
    "study system": "human AR (Homo sapiens, UniProt P10275)",
    "AR Agonist CV-1 Cells Efficacy (%)": 6
  }
]
